Test system: S. pneumoniae 2404
Measurement Notes: MIC against S. pneumoniae 2404
Assay type: cell-based
Setup Conditions: Streptococcus pneumoniae; Table 2; S. pneumoniae 2404, Pen S; alone; read-out: MIC
Recorded Endpoint: MIC

Examples with answers:
Smiles Entry | Recorded Endpoint | Reported
CC(C)(O/N=C(\C(=O)N[C@@H]1C(=O)N2C(C(=O)[O-])=C(C[n+]3ccc4n3CCN4Cc3ccc(C(=N)N)cc3)CS[C@H]12)c1csc(N)n1)C(=O)O | MIC | 0.25 µg/mL
CC(C)(O/N=C(\C(=O)N[C@@H]1C(=O)N2C(C(=O)[O-])=C(C[n+]3ccc4c(ccn4Cc4cc(C(=N)N)co4)c3)CS[C@H]12)c1csc(N)n1)C(=O)O | MIC | ≤ 0.06 µg/mL
CC(C)(O/N=C(\C(=O)N[C@@H]1C(=O)N2C(C(=O)[O-])=C(C[n+]3ccc4c(ccn4Cc4ccc(C(=N)N)cc4)c3)CS[C@H]12)c1csc(N)n1)C(=O)O | MIC | 0.25 µg/mL

Give a short answer stating reported MIC for CC(C)(O/N=C(\C(=O)N[C@@H]1C(=O)N2C(C(=O)[O-])=C(C[n+]3ccc4c(ccn4Cc4cc(C(=N)N)cs4)c3)CS[C@H]12)c1csc(N)n1)C(=O)O .
≤ 0.06 µg/mL
